assay: Approximate solubility of pomalidomide at 50°C in 96 solvent compositions (LC); format: physicochemical; settings: binary solvent mixture (main solvent and co-solvent), 50 °C, organic solvent or mixture, thermodynamic from solid, solvent system H1 of Table 7, read-out: Approximate Measured Solubility
Measurement Kind: solubility at 2 h (µg/mL)

>>> recorded_result("Nc1cccc2c1C(=O)N(C1CCC(=O)NC1=O)C2=O (stereo not shown) [Pomalidomide]")
380

----------
experiment: Approximate solubility of pomalidomide at 50°C in 96 solvent compositions (LC); format: physicochemical; details: binary solvent mixture (main solvent and co-solvent), 50 °C, organic solvent or mixture, thermodynamic from solid, solvent system E1 of Table 7, read-out: Approximate Measured Solubility
Measurement Kind: solubility at 2 h (µg/mL)

>>> recorded_result("Nc1cccc2c1C(=O)N(C1CCC(=O)NC1=O)C2=O (stereo not shown) [Pomalidomide]")
1600

----------
assay: Approximate solubility of pomalidomide at 50°C in 96 solvent compositions (LC); type: physicochemical; details: binary solvent mixture (main solvent and co-solvent), 50 °C, organic solvent or mixture, thermodynamic from solid, solvent system G10 of Table 7, read-out: Approximate Measured Solubility
Measurement Kind: solubility at 2 h (µg/mL)

>>> recorded_result("Nc1cccc2c1C(=O)N(C1CCC(=O)NC1=O)C2=O (stereo not shown) [Pomalidomide]")
2310

----------
experiment: physchem; conditions: ethyl acetate, 25 °C, organic solvent or mixture, thermodynamic from solid
Measurement Kind: solubility

>>> recorded_result("N#Cc1ccc([C@H]2CCc3cncn32)c(F)c1 [Compound (III)]")
"> 50 mg/mL"

----------
assay: Approximate solubility of pomalidomide at 50°C in 96 solvent compositions (LC); assay type: physicochemical; details: binary solvent composition (main solvent and co-solvent), 50 °C, organic solvent or mixture, thermodynamic from solid, solvent system B9 of Table 7, read-out: Approximate Measured Solubility
Measurement Kind: solubility at 2 h (µg/mL)

>>> recorded_result("Nc1cccc2c1C(=O)N(C1CCC(=O)NC1=O)C2=O (stereo not shown) [Pomalidomide]")
920

----------
assay: Approximate solubility of pomalidomide at 50°C in 96 solvent compositions (LC); format: physicochemical; conditions: binary solvent composition (main solvent and co-solvent), 50 °C, organic solvent or mixture, thermodynamic from solid, solvent system D6 of Table 7, read-out: Approximate Measured Solubility
Measurement Kind: solubility at 2 h (µg/mL)

>>> recorded_result("Nc1cccc2c1C(=O)N(C1CCC(=O)NC1=O)C2=O (stereo not shown) [Pomalidomide]")
490

----------
assay: Solubility of pomalidomide in various solvents; format: physicochemical; conditions: methyl ethyl ketone, 25 °C, organic solvent or mixture, thermodynamic from solid, Methyl ethyl ketone; ambient temperature; read-out: Solubility
Measurement Kind: solubility (µg/mL)

>>> recorded_result("Nc1cccc2c1C(=O)N(C1CCC(=O)NC1=O)C2=O (stereo not shown) [Pomalidomide]")
1260

----------
assay: Solubility of pomalidomide in various solvents; type: physicochemical; conditions: tetrahydrofuran, 25 °C, organic solvent or mixture, thermodynamic from solid, Tetrahydrofuran; ambient temperature; read-out: Solubility
Measurement Kind: solubility (µg/mL)

>>> recorded_result("Nc1cccc2c1C(=O)N(C1CCC(=O)NC1=O)C2=O (stereo not shown) [Pomalidomide]")
5260

----------
experiment: Approximate solubility of pomalidomide at 50°C in 96 solvent compositions (LC); assay type: physicochemical; settings: binary solvent composition (main solvent and co-solvent), 50 °C, organic solvent or mixture, thermodynamic from solid, solvent system B4 of Table 7, read-out: Approximate Measured Solubility
Measurement Kind: solubility at 2 h (µg/mL)

>>> recorded_result("Nc1cccc2c1C(=O)N(C1CCC(=O)NC1=O)C2=O (stereo not shown) [Pomalidomide]")
220

----------
assay: Approximate solubility of pomalidomide at 50°C in 96 solvent compositions (LC); type: physicochemical; conditions: binary solvent composition (main solvent and co-solvent), 50 °C, organic solvent or mixture, thermodynamic from solid, solvent system C2 of Table 7, read-out: Approximate Measured Solubility
Measurement Kind: solubility at 2 h (µg/mL)

>>> recorded_result("Nc1cccc2c1C(=O)N(C1CCC(=O)NC1=O)C2=O (stereo not shown) [Pomalidomide]")
1410

Each recorded value in this set is attributed to patent EP2815749A1.
